System: NCI-H520
assay_overview: Growth inhibitory activity against H520 (human lung) cancer cell line at 10 uM dose
Assay type: functional

- smiles_data: "CC(C)=CCc1[nH]c2ccccc2c1C[C@H]1NC(=O)[C@H]2CCCN2C1=O"
  Cell survival: ">100%"
- smiles_data: "CC(C)=CCc1[nH]c2ccccc2c1C[C@H]1NC(=O)[C@@H]2CCCN2C1=O"
  Cell survival: ">100%"
- smiles_data: "COc1ccc2c(C[C@H]3NC(=O)[C@@H]4CCCN4C3=O)c(CC=C(C)C)[nH]c2c1"
  Cell survival: ">100%"

These data points were gathered from ChEMBL document CHEMBL1135835.
